# credit: ChEMBL document CHEMBL1124545

- system-under-test: Muscarinic receptor M2 and M3 (Rattus norvegicus) (UniProt P08483+P10980)
- Sequence (P08483 whole entry, looked up): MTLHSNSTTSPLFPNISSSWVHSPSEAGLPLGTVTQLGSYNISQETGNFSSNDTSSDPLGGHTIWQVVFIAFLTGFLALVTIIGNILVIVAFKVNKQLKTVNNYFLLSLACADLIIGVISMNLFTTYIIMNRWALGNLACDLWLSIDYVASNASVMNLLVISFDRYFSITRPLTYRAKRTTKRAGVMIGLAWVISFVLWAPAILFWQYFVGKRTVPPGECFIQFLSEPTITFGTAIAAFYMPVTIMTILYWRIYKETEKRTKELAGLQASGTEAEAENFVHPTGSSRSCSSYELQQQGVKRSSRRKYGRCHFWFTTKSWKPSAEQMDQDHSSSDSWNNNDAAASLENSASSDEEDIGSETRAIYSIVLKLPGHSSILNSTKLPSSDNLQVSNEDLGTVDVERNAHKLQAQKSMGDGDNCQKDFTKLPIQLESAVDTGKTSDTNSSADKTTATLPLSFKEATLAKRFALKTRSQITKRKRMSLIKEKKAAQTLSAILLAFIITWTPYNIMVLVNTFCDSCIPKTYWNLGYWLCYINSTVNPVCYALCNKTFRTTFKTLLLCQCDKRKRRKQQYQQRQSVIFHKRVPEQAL
- Sequence (P10980 whole entry, looked up): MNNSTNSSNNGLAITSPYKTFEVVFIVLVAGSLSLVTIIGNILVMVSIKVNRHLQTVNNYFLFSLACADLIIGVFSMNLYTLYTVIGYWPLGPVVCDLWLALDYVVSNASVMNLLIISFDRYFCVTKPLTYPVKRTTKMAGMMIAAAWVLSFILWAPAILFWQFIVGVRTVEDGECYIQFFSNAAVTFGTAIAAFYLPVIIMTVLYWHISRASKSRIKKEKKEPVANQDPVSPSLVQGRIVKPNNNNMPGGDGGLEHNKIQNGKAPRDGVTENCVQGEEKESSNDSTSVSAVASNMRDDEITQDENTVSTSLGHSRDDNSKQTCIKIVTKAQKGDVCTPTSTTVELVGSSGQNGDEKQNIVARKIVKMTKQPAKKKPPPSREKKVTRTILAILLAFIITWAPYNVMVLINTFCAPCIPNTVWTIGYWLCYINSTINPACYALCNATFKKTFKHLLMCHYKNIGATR
- assay-method-text: Selectivity ratio for glandular muscarinic receptor 3 and cardiac muscarinic receptor 2 in rat
quantity-name: Ratio

Illustrative cases are given below, each with its answer.
# compound, system-under-test, quantity-name, data-value
measured = [
    ("CCc1ccc2c(c1)C(=O)Nc1cccnc1N2C(=O)CN1CCCCC1CN(CC)CC (stereo not given)", "Muscarinic receptor M2 and M3 (Rattus norvegicus) (UniProt P08483+P10980)", "Ratio", 10),
    ("CCCN(CCC)CC1CCCCN1CC(=O)N1c2ccccc2C(=O)Nc2cccnc21 (stereo not given)", "Muscarinic receptor M2 and M3 (Rattus norvegicus) (UniProt P08483+P10980)", "Ratio", 4),
    ("CCN(CC)CC1CCCCN1CC(=O)N1c2ccc(Br)cc2C(=O)Nc2cccnc21 (stereo not given)", "Muscarinic receptor M2 and M3 (Rattus norvegicus) (UniProt P08483+P10980)", "Ratio", 26.6),
    ("CCN(CC)CC1CCCCN1CC(=O)N1c2ccc(C)cc2C(=O)Nc2cccnc21 (stereo not given)", "Muscarinic receptor M2 and M3 (Rattus norvegicus) (UniProt P08483+P10980)", "Ratio", 33.3),
    ("CCN(CC)CC1CCCCN1CC(=O)N1c2ccccc2C(=O)Nc2cccnc21 (stereo in doubt; 10)", "Muscarinic receptor M2 and M3 (Rattus norvegicus) (UniProt P08483+P10980)", "Ratio", 42.8),
]

(I) CCN(CC)CC1CCCCN1CC(=O)N1c2ccc(Cl)cc2C(=O)Nc2cccnc21 (stereo not given)
(II) CCN(C)CC1CCCCN1CC(=O)N1c2ccccc2C(=O)Nc2cccnc21 (stereo not given)
(III) CCN(CC)CCCC1CCCCN1CC(=O)N1c2ccccc2C(=O)Nc2cccnc21 (stereo not given)
(IV) CCNCC1CCCCN1CC(=O)N1c2ccccc2C(=O)Nc2cccnc21 (stereo not given)
(V) CN(CC1CCCCN1CC(=O)N1c2ccccc2C(=O)Nc2cccnc21)C1CCCCCC1 (stereo not given)
Endpoint returns the given compounds ordered by ascending Ratio. // respond by listing labels in the order requested
V, III, IV, II, I
(V: 2.3, III: 3.3, IV: 5, II: 12.5, I: 40)
